target: Gal(a1-3)Gal(b1-4)Glc; assay: glycan array binding signal (z-score within array); higher = stronger binding; settings: glycan notation: IUPAC condensed, linker removed
Many of the other results were omitted from the sample, so the strongest signals are more common in it than they were.
Measured glycan array binding signal (z-score), listed per entry.
# print the numeric value only

BINDER	glycan array binding signal (z-score)
Epa9 (Candida glabrata), CAGL0A01386g (protein) MGSSHHHHHHSSGLVPRGSHMDITPFAHYPRPEGCSSPPNAVSVGLHMDLYNYPYLYVKNPRTGFTNDTDSDADGETDGDSAGGIEGRAGQCWNPEYQDPNFPRYGYKKYGSFGSSDHVNGKISWDHNEFKEGCKPIMARLPTAYNYPAKITFSNFTMVLSGYFKPKSTGLYKFEIHADDFILFNFGSKNAFECCNREESIDNFGPYVAYAMWPNEADQELEVYLFEDSYYPIRLFYNNRDYHSKFMVGFYPPNTEEITYDFDGYLYMLDDTGNECKDSIRYKTVCDD	0.746
BIp1-His (Cryptococcus neoformans) (protein) MFTKIFVALFAATAVLSAPVESAEKRITHTGRATFYSPSVGIGACGWQNTDEELVVALNAPQYALNADHNCGQSVRITNEQNGNQEIAKVVDLCPGCNDGDLDMSPALFGALNNNDFDQGVFPISWNFLPRDDTSSSN	-0.171
PLU (Photorhabdus luminiscence) (protein) HHHHHHENLYFQSSIVFASIDPRSNPLQTSSQNYVDIPGLKLDVSKYSNSPCLTALITLNIPTPYASGNNFPGGNFAIVTDQGEQLAYGGFTYSSKIPENSGRMPFTLVARYSLASNVSTIKAQWSNIRGSTVHIDSYASISAVIQCNQLV	-0.284

Prompt line: Using known records, supply glycan array binding signal (z-score) for Epa21 (Candida glabrata) (protein) MGSSHHHHHHSSGLVPRGSHMASTPNIESHPQGCSPVDTSGIKPGLKMDLYRFPITPPGTGCWSWDWLTVTPDFPRSGYWKWPKIAEVDGVVGPLHLDSGHPTCDPLTSVLPHGFNYLQSITTTNFTMVLHGYFVPKQSGKYTFEFKADDALLLNLGAGNAFSCCDYNNSQYNQGEYLAYAIWSKNNQTATLYLEKGIYYPIRVFYHNRCCGAYMDVVYYFNDSPIPNRDFSGLLFSIPDSDSCDANI
Response line: -0.176

Prompt line: Using known records, supply glycan array binding signal (z-score) for rPitB (Streptococcus pneumoniae), A0A0I7U739 (protein) MSEIEIINAKKIYHDVPVIENLNITIPKGSLFTLLGASGCGKTTLLRMIAGFNSIKDGEFYFDDTKINNMEPSKRNIGLVFQNYAIFPHLTVRDNVAFGLMQKKVPKEELIQQTNKYLELMQIAQYAD
Response line: -0.617

Prompt line: Using known records, supply glycan array binding signal (z-score) for F17bG (Escherichia coli), Q47200 (protein) MTNFYKVFLAVFILVCCNISHAVVSFIGSTENDVGPSQGSYSSTHAMDNLPFVYNTGYNIGYQNANVWRIGGGFCVGLDGKVDLPVVGSLDGQSIYGLTEEVGLLIWMGDTNYSRGTAMSGNSWENVFSGWCVGNYLSTQGLSVHVRPVILKRNSSAQYSVQKTSIGSIRMRPYNGSSAGSVQTTVNFSLNPFTLNDTVTSCRLLTPSAVNVSLAAISAGQLPSSGDEVVAGTTSLKLQCDAGVTVWATLTDATTPSNRSDILTLTGASTATGVGLRIYKNTDSTPLKFGPDSPVKGNENQWQLSTGTETSPSVRLYVKYVNTGEGINPGTVNGISTFTFSYQ
Response line: -0.565

Prompt line: Using known records, supply glycan array binding signal (z-score) for PA-IL (Pseudomonas aeruginosa) (protein) AWKGEVLANNEAGQVTSIIYNPGDVITIVAAGWASYGPTQKWGPQGDREHPDQGLICHDAFCGALVMKIGNSGTIPVNTGLFRWVAPNNVQGAITLIYNDVPGTYGNNSGSFSVNIGKDQS
Response line: 3.73

Origin of values: the supplement of paper PMC8728848
